Property: IRF reporter; scope: individual compounds
- Tested on: RAW-Dual (murine macrophage reporter line)
- Assay Details: IRF reporter (Lucia luciferase) activity fold change vs agonist alone; higher = enhanced IRF activity
- Reported Conditions: modulator concentration 10 µM; agonist: MPLA […]
Lab note: record just the number, no unit beside it.

COc1ccccc1N1C(=O)C(=Cc2ccc(C)s2)C(=O)NC1=S	1.39
c1cc2c(cc1C1OCC3C(c4ccc5c(c4)OCO5)OCC13)OCO2 (stereo unspecified)	1.24

Lookup: Endpoint output: IRF reporter of `COc1cc(OC)c(OC)cc1C=O` . Value?
Found: 0.99

Lookup: Quick one: IRF reporter for `CCCC(=O)c1ccc(N2CCN(C)CC2)c(F)c1` ?
Found: 1.27

Lookup: Recorded IRF reporter of CC12CCC3C(CCC4CC(O)CCC43C)C1CCC2=O (stereo unspecified) , please.
Found: 0.972

Lookup: Recorded IRF reporter for `O=C1NC(=O)C(=Cc2cc(Br)ccc2OCc2ccc(Cl)cc2Cl)C(=O)N1` , please?
Found: 0.822

// provenance: the supplement of paper PMC10646978
